target: ATX enzyme in human plasma (Homo sapiens); construct: Whole blood was collected from healthy volunteers and anticoagulated with heparin; experiment: Inhibition of activity of ATX enzyme in human plasma (LPA18:2 formation, LC-MSMS); settings: human plasma, 37° C., 3 h, LPA18:2 formation; read-out: IC50, inhibitory effect on activity of ATX enzyme in human plasma
READOUT: IC50 (µM)

>  <COMPOUND>
O=C(c1cnc(NC2Cc3ccccc3C2)nc1)N1CC2(CC(OCc3c[nH]nn3)C2)C1 [Compound I-9]

>  <TGT>
ATX enzyme in human plasma (Homo sapiens)

>  <REPORTED>
0.00274

$$$$
>  <COMPOUND>
CC(OCc1c[nH]nn1)C1CCN(C(=O)c2cnc(NC3Cc4ccccc4C3)nc2)CC1 (centres unmarked) [Compound I-3]

>  <TGT>
ATX enzyme in human plasma (Homo sapiens)

>  <REPORTED>
0.0421

$$$$
>  <COMPOUND>
CC1CC(COCc2c[nH]nn2)CCN1C(=O)c1cnc(NC2Cc3ccccc3C2)nc1 (centres unmarked) [Compound I-5]

>  <TGT>
ATX enzyme in human plasma (Homo sapiens)

>  <REPORTED>
0.0309

$$$$
>  <COMPOUND>
O=C(c1cnc(NC2Cc3ccc(F)cc3C2)nc1)N1CC2(CC(OCc3c[nH]nn3)C2)C1 (centres unmarked) [Compound I-10]

>  <TGT>
ATX enzyme in human plasma (Homo sapiens)

>  <REPORTED>
0.0118

$$$$

[P] O=C(c1cnc(NC2Cc3ccc(F)cc3C2)nc1)N1CCC(COCc2c[nH]nn2)CC1 (centres unmarked) [Compound I-7]
[Q] O=C(c1cnc(NC2Cc3ccccc3C2)nc1)N1CCC(COCc2c[nH]nn2)C(F)C1 (centres unmarked) [Compound I-6]
[R] O=C(c1cnc(NC2Cc3ccccc3C2)nc1)N1CCC(COCc2cn[nH]n2)CC1 [Compound I-1]
[S] CC(OCC1CCN(C(=O)c2cnc(NC3Cc4ccccc4C3)nc2)CC1)c1cn[nH]n1 (centres unmarked) [Compound I-2]
Task for the reader: rank each entry by its IC50, from the minimum upward. Form field (ranking): labels in requested order.
R, P, S, Q
(R: 0.00873 µM, P: 0.0146 µM, S: 0.0247 µM, Q: 0.0412 µM)

This collection of values is drawn from patent US20220204479A1.
